The measurements presented in this section are drawn from patent US6071907A.

# targetOrTestSystem: partially purified rat brain farnesyl protein transferase (FPT) (Rattus norvegicus, UniProt Q02293+Q04631)
# Construct: partially purified rat brain farnesyl protein transferase (FPT); from tissue; host or cells: rat brain (partially purified enzyme)
# protocolDescription: FPT IC50 (inhibition of farnesyl protein transferase, in vitro enzyme assay); Ras-CVLS farnesylation
# Type: biochemical
pIC50: −log10 of the molar value.
measurementLabel: pIC50

>>> measvalue("CCC1Cc2cc(Cl)cc(Cl)c2C(N2CCN(C(=O)Cc3cc[n+]([O-])cc3)CC2)c2ncc(Br)cc21 (racemic)")
8.22

* * *

Examples of compounds with documented IC50 follow.
# targetOrTestSystem: partially purified rat brain farnesyl protein transferase (FPT) (Rattus norvegicus, UniProt Q02293+Q04631)
# Construct: partially purified rat brain farnesyl protein transferase (FPT); from tissue; host or cells: rat brain (partially purified enzyme)
# protocolDescription: FPT IC50 (inhibition of farnesyl protein transferase, in vitro enzyme assay); Ras-CVLS farnesylation
# Type: biochemical
# measurementContext: in vitro enzyme assay, Ras-CVLS farnesylation, partially purified rat brain FPT; read-out: FPT IC50
measurementLabel: IC50 (nM)

>>> measvalue("CCC(=O)N1CCC(CC(=O)N2CCC([C@H]3c4ncc(Br)cc4CCc4cc(Cl)cc(Br)c43)CC2)CC1 [Example 5]")
6.8
>>> measvalue("O=C(CN1C(=O)c2ccccc2C1=O)N1CCC(C2c3ncc(Br)cc3CCc3cc(Cl)cc(Cl)c32)CC1 (single isomer, unassigned; (+)) [Example 4]")
18.6
>>> measvalue("O=C(CN1CC[S+]([O-])CC1)N1CCC(C2c3ccc(Cl)c(Br)c3CCc3cc(Br)cnc32)CC1 (stereo not shown) [Example 2]")
6.8
>>> measvalue("O=C(CN1CCSCC1)N1CCC(C2c3ccc(Cl)c(Br)c3CCc3cc(Br)cnc32)CC1 (stereo not shown) [Example 1]")
8.9
